test system: human red blood cells; assay type: cell-based; conditions: red cells of human, 1 h
Non-standard residues stand in square brackets, D forms with d. Residues, ends and D or L forms follow the SMILES beside them. *: point of attachment. Tetradecanoyl(3R-OH) = CCCCCCCCCCC[C@@H](O)CC(=O)*; Tetradecanoyl(3S-OH) = CCCCCCCCCCC[C@H](O)CC(=O)*

compound	reading-unit	HC50
CCCCCCCCCCC[C@H](O)CC(=O)N[C@@H](Cc1c[nH]c2ccccc12)C(=O)N[C@@H](CO)C(=O)N[C@H](Cc1c[nH]c2ccccc12)C(=O)N[C@@H](Cc1ccccc1)C(=O)N[C@@H](C(=O)N[C@@H](C)C(=O)N[C@H](C(=O)O)C(C)C)[C@H](C)O [13S] ({Tetradecanoyl(3S-OH)}-WS[dW]F[dT]AV-OH)	µg/mL	48
CCCCCCCCCCC[C@@H](O)CC(=O)N[C@@H](Cc1c[nH]c2ccccc12)C(=O)N[C@@H](CO)C(=O)N[C@H](Cc1c[nH]c2ccccc12)C(=O)N[C@@H](Cc1ccccc1)C(=O)N[C@@H](C(=O)N[C@@H](C)C(=O)N[C@H](C(=O)O)C(C)C)[C@H](C)O [13R] ({Tetradecanoyl(3R-OH)}-WS[dW]F[dT]AV-OH)	µg/mL	76.8
CCCCCCCCCCC[C@H](O)CC(=O)N[C@@H](Cc1c[nH]c2ccccc12)C(=O)N[C@@H](CO)C(=O)N[C@H](Cc1c[nH]c2ccccc12)C(=O)N[C@@H](Cc1ccccc1)C(=O)N[C@@H](C(=O)N[C@H](C(=O)N[C@H](C(=O)O)C(C)C)C(C)C)[C@H](C)O [12S] ({Tetradecanoyl(3S-OH)}-WS[dW]F[dT]VV-OH)	µg/mL	60.8
CCCCCCCCCCC[C@@H](O)CC(=O)N[C@@H](Cc1c[nH]c2ccccc12)C(=O)N[C@@H](CO)C(=O)N[C@H](Cc1c[nH]c2ccccc12)C(=O)N[C@@H](Cc1ccccc1)C(=O)N[C@@H](C(=O)N[C@H](C(=O)N[C@H](C(=O)O)C(C)C)C(C)C)[C@H](C)O [12R] ({Tetradecanoyl(3R-OH)}-WS[dW]F[dT]VV-OH)	µg/mL	44.8

Data credit: paper PMC12024397
